Reference source: patent US12258327B2

Overview of reported IC50 across a group of compounds:
- TARGET SYSTEM: EGFR L858R/T790M/C797S (Homo sapiens, UniProt P00533, C797S/L858R/T790M)
- Sequence (P00533 25-1210 T790M/C797S/L858R): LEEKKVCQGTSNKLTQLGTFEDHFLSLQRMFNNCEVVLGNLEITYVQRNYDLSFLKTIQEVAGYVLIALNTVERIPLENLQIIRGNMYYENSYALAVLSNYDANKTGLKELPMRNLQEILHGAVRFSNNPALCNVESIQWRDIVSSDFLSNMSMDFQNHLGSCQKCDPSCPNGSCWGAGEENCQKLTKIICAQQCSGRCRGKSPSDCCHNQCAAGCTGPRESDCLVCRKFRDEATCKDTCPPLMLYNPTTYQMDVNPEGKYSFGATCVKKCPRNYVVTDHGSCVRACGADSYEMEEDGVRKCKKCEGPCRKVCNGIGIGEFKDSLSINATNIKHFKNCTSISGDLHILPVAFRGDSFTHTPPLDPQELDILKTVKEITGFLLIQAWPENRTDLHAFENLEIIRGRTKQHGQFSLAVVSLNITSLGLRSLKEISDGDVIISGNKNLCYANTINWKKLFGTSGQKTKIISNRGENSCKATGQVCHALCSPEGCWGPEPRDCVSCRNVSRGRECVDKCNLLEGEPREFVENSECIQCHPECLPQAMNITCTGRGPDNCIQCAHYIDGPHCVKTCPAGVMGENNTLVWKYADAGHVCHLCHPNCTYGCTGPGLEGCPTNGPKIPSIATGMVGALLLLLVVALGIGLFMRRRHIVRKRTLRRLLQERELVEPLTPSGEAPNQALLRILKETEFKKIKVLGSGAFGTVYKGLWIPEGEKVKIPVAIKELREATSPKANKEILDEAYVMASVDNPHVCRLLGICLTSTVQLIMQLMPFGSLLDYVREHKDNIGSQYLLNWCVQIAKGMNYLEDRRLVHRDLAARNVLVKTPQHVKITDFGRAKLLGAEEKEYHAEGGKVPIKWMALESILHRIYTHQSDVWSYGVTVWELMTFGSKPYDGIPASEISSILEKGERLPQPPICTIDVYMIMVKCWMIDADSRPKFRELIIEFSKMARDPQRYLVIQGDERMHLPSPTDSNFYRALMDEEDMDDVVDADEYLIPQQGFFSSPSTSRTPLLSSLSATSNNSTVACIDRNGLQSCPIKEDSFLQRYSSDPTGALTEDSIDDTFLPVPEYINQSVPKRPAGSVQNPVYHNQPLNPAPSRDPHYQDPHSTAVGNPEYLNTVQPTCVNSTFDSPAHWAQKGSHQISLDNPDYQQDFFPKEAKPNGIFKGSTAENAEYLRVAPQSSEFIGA
- MEASUREMENT DESCRIPTION: Biochemical EGFR kinase assay (Lance Ultra TR-FRET), triple mutant L858R/T790M/C797S
- EXPERIMENTAL PARAMETERS: IC50 L858R/T790M/C797S (nM) 100 μM ATP, 100 μM ATP
Respond with the bare value in nM.

As a guide, the following entries are already answered.
> print(dat)
                                   compound                             target.system  observed.result
1  O=S(=O)(C1CC1)n1cc(-c2nccc(Nc3cc(NCC4CCC(O)C4)c(-c4ccn(C(F)F)n4)cn3)n2)cn1 (stereo not shown) [Example 33]  EGFR L858R/T790M/C797S (Homo sapiens, UniProt P00533, C797S/L858R/T790M)              1.4
2  O=S(=O)(C1CC1)n1cc(-c2nccc(Nc3cc(N[C@H]4CC[C@@H](NCCF)CC4)c(-c4cc5n(n4)CCCC5)cn3)n2)cn1 [Example 62]  EGFR L858R/T790M/C797S (Homo sapiens, UniProt P00533, C797S/L858R/T790M)              0.2
3  O=S(=O)(C1CC1)n1cc(-c2nccc(Nc3cc(NC4CC(O)C4)c(-c4ccn(C(F)F)n4)cn3)n2)cn1 (stereo not shown) [Example 40]  EGFR L858R/T790M/C797S (Homo sapiens, UniProt P00533, C797S/L858R/T790M)                2
4  CN[C@H]1CC[C@@H](Oc2cc(Nc3ccnc(-c4cnn(S(=O)(=O)C5CC5)c4)n3)ncc2-c2cnn(C(F)F)c2)CC1 [Example 69]  EGFR L858R/T790M/C797S (Homo sapiens, UniProt P00533, C797S/L858R/T790M)              1.9

Query :: I'd like to know its IC50. The compound in question is O=S(=O)(C1CC1)n1cc(-c2nccc(Nc3cc(OC4CCC(O)C4)c(-c4cnn(C(F)F)c4)cn3)n2)cn1 (stereo not shown) [Example 72]
Result :: 5.8

Query :: I'd like to know its IC50. The compound in question is CN(C)C[C@H]1C[C@@H](CNc2cc(Nc3ccnc(-c4cnn(S(=O)(=O)C5CC5)c4)n3)ncc2-c2ccn(C(F)F)n2)C1 [Example 203]
Result :: 0.2

Query :: I'd like to know its IC50. The compound in question is O=S(=O)(C1CC1)n1cc(-c2nccc(Nc3cc(N[C@@H]4CC[C@H](O)C4)c(-c4ccn(C(F)F)n4)cn3)n2)cn1 [Example 13]
Result :: 1

Query :: I'd like to know its IC50. The compound in question is CN(C)C[C@H]1C[C@@H](CNc2cc(Nc3ccnc(-c4cnn(S(=O)(=O)C5CC5)c4)n3)ncc2-c2ccn(C)n2)C1 [Example 234]
Result :: 0.2

----------
- TARGET SYSTEM: EGFR wildtype (WT) (Homo sapiens)
- Sequence (P00533 25-1210): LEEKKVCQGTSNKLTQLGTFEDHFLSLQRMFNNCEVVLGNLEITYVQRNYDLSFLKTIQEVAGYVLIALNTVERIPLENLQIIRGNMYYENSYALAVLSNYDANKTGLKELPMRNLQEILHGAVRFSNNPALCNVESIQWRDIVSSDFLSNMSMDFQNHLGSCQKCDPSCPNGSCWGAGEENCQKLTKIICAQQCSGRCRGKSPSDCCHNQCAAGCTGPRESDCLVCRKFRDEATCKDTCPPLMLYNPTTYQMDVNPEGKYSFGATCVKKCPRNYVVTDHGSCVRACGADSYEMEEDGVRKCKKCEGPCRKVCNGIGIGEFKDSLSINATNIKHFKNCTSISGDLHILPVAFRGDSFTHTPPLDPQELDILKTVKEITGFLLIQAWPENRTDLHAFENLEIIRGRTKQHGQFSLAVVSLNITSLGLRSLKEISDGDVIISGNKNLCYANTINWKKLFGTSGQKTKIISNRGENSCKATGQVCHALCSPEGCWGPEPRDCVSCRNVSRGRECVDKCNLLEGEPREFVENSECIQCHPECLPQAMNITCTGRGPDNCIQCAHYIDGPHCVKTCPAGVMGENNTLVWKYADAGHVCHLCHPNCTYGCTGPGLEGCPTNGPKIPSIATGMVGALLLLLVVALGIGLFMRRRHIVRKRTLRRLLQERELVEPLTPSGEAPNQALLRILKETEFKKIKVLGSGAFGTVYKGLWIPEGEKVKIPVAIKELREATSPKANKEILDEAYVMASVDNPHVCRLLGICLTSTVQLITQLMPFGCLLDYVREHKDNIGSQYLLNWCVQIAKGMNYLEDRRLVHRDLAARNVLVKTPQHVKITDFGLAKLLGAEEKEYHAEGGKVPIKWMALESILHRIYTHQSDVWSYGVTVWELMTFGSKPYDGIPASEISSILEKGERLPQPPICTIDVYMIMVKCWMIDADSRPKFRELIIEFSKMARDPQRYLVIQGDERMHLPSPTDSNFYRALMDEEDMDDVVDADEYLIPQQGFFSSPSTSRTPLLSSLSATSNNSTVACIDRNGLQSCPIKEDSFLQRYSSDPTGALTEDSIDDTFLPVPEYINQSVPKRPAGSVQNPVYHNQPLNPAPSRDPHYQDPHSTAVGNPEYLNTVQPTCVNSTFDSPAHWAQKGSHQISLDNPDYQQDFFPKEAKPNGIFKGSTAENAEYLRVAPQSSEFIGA
- MEASUREMENT DESCRIPTION: Biochemical EGFR kinase assay (Lance Ultra TR-FRET), wildtype
- EXPERIMENTAL PARAMETERS: IC50 WT (nM) 100 μM ATP, 100 μM ATP
Overview of reported IC50 across a group of compounds:

Query :: I'd like to know its IC50. The compound in question is Cn1ccc(-c2cnc(Nc3ccnc(-c4cnn(S(=O)(=O)C5CC5)c4)n3)cc2NC2CCCC(NCCF)C2)n1 (stereo not shown) [Example 225]
Result :: > 10000 nM

Query :: I'd like to know its IC50. The compound in question is C[C@]1(O)CC[C@@H](Nc2cc(Nc3ccnc(-c4cnn(S(=O)(=O)C5CC5)c4)n3)ncc2-c2cc3n(n2)CCCC3)CC1 [Example 59]
Result :: 368 nM

Query :: I'd like to know its IC50. The compound in question is O=S(=O)(C1CC1)n1cc(-c2nccc(Nc3cc(N[C@H]4CC[C@H](CCO)CC4)c(-c4ccn(CC(F)(F)F)n4)cn3)n2)cn1 [Example 270]
Result :: > 10000 nM

Query :: I'd like to know its IC50. The compound in question is CN(CC(F)F)C[C@H]1CC[C@@H](Nc2cc(Nc3ccnc(-c4cnn(S(=O)(=O)C5CC5)c4)n3)ncc2-c2cc(C(F)(F)F)n(C)n2)CC1 [Example 259]
Result :: > 10000 nM

Query :: I'd like to know its IC50. The compound in question is CC(C)(O)c1nc(-c2cnc(Nc3ccnc(-c4cnn(S(=O)(=O)C5CC5)c4)n3)cc2N[C@H]2CC[C@@](C)(O)CC2)cs1 [Example 93]
Result :: > 10000 nM

----------
- TARGET SYSTEM: EGFR L858R/C797S (Homo sapiens, UniProt P00533, C797S/L858R)
- Sequence (P00533 25-1210 C797S/L858R): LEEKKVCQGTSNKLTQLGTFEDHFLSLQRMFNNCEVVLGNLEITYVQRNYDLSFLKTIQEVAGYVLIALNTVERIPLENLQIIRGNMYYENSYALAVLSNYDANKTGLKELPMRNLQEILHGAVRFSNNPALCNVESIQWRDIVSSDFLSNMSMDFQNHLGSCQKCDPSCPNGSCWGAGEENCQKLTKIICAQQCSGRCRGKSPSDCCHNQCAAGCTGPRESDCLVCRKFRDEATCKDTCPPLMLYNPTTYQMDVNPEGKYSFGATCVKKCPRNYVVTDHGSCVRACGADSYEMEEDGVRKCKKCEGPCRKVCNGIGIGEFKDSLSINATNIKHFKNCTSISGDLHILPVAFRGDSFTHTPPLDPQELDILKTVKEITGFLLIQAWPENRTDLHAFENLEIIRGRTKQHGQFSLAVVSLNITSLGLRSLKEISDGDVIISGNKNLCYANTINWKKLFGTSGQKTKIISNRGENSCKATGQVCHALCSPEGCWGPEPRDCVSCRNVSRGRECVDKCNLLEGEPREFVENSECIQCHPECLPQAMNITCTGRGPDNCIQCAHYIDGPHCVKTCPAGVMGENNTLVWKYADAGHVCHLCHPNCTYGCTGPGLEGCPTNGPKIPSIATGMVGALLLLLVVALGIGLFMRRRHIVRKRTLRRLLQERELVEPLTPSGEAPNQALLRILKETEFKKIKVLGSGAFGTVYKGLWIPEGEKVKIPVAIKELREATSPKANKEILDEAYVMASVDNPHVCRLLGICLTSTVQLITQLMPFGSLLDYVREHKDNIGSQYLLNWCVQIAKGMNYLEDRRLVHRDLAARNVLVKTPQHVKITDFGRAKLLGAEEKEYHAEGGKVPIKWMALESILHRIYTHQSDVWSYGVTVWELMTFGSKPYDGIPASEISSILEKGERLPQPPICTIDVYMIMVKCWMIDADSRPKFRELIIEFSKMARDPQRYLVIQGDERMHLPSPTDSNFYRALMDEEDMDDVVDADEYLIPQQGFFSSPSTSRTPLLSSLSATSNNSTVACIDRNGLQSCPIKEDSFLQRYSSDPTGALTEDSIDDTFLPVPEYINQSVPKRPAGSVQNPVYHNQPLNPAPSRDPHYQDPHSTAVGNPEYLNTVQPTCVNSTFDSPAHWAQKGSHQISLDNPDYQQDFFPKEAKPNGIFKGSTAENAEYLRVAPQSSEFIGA
- MEASUREMENT DESCRIPTION: Biochemical EGFR kinase assay (Lance Ultra TR-FRET), double mutant L858R/C797S
- EXPERIMENTAL PARAMETERS: Km ATP; read-out: IC50 L858R/C797S, Km ATP
MEASUREMENT LABEL: IC50 (nM)
Respond with the bare value in nM.

> print(dat)
                                   compound  measurement.label  observed.result
1  O=S(=O)(C1CC1)n1cc(-c2cc(Nc3ncc(-c4ccn(C(F)F)n4)c(N[C@H]4CC[C@@H](CO)CC4)n3)ccn2)cn1               IC50                9
2  Cn1nc(-c2cnc(Nc3ccnc(-c4cnn(CC(F)F)c4)c3)nc2N[C@H]2CC[C@@](C)(O)CC2)cc1C(F)(F)F               IC50               20
3  C[C@]1(O)CC[C@@H](Nc2nc(Nc3ccnc(-c4cnn(S(=O)(=O)C5CC5)c4)c3)ncc2-c2ccn(CC(F)(F)F)n2)CC1               IC50             16.7

Query :: I'd like to know its IC50. The compound in question is C[C@]1(O)CC[C@@H](Nc2nc(Nc3ccnc(-c4cnn(S(=O)(=O)C5CC5)c4)c3)ncc2-c2ccn(CCC(F)(F)F)n2)CC1
Result :: 18.3

Query :: I'd like to know its IC50. The compound in question is CC1(O)CCC(Nc2cc(Nc3ccnc(N4CCC(O)C(F)(F)C4)n3)ncc2-c2ccn(C(F)F)n2)CC1 (stereo not drawn)
Result :: 14.6

Query :: I'd like to know its IC50. The compound in question is Cc1nn(CC(F)(F)F)cc1-c1cc(Nc2ncc(-c3ccn(C(F)F)n3)c(N[C@H]3CC[C@@](C)(O)CC3)n2)ccn1
Result :: 10.7

----------
- TARGET SYSTEM: EGFR del19/C797S (Homo sapiens, UniProt P00533, C797S/DEL746-750)
- Sequence (P00533 with tags, fused parts or gaps DEL746-750/C797S): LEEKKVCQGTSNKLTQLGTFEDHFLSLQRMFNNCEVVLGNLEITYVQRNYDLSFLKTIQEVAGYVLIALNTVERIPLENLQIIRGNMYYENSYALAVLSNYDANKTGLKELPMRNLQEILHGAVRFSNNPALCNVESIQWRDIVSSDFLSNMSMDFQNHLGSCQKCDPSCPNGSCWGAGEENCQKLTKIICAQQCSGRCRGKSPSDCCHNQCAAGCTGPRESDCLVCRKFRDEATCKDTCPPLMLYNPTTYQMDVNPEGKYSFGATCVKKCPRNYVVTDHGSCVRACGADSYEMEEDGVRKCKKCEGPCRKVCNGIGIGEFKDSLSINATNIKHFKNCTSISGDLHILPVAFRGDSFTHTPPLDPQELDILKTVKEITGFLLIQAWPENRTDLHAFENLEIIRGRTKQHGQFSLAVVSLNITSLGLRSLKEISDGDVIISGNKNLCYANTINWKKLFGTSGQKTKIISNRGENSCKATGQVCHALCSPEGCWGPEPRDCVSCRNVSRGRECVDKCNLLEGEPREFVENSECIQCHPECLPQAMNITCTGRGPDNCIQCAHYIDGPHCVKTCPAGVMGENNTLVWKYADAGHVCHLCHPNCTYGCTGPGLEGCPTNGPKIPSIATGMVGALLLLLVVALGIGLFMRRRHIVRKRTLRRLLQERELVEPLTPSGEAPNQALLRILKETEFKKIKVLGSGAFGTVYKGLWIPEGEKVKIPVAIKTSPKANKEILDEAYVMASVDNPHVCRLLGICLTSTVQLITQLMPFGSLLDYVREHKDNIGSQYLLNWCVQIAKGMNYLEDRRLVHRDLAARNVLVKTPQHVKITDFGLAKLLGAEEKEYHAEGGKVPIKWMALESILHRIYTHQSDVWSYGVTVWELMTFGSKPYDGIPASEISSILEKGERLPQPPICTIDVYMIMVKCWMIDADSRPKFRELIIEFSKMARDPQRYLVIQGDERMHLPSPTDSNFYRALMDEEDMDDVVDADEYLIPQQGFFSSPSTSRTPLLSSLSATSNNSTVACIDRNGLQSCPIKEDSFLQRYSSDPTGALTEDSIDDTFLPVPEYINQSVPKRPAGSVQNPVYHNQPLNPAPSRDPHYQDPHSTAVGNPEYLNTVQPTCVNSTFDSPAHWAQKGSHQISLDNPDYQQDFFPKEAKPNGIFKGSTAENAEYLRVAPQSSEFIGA
- MEASUREMENT DESCRIPTION: Biochemical EGFR kinase assay (Lance Ultra TR-FRET), double mutant del19/C797S
- EXPERIMENTAL PARAMETERS: IC50 del19/C797S (nM) 100 μM ATP, 100 μM ATP
Rule: measured IC50 below 8 nM gets TRUE; anything equal to or greater than 8 nM gets FALSE.

Previously resolved entries follow.
> print(dat)
                                   compound                             target.system  category.label
1  Cn1ccc(-c2cnc(Nc3ccnc(-c4cnn(S(=O)(=O)C5CC5)c4)n3)cc2NC[C@H]2C[C@H](CO)C2)n1  EGFR del19/C797S (Homo sapiens, UniProt P00533, C797S/DEL746-750)            TRUE
2  O=S(=O)(C1CC1)n1cc(-c2nccc(Nc3cc(N[C@H]4CCC[C@H](CO)C4)c(-c4ccn(C(F)F)n4)cn3)n2)cn1  EGFR del19/C797S (Homo sapiens, UniProt P00533, C797S/DEL746-750)            TRUE
3  Cn1ccc(-c2cnc(Nc3ccnc(-c4cnn(S(=O)(=O)C5CC5)c4)n3)cc2NC2CCCC(NCC(F)F)C2)n1 (stereo not shown)  EGFR del19/C797S (Homo sapiens, UniProt P00533, C797S/DEL746-750)            TRUE

Query :: Here's an entry: O=S(=O)(C1CC1)n1cc(-c2nccc(Nc3cc(N[C@@H]4CC[C@@H](O)C4)c(-c4ccn(C(F)F)n4)cn3)n2)cn1 . Is its IC50 below 8 nM?
Result :: FALSE

Query :: Here's an entry: O=S(=O)(C1CC1)n1cc(-c2nccc(Nc3cc(NC4CCCC(NCCF)C4)c(-c4ccn(C(F)F)n4)cn3)n2)cn1 (stereo not shown) . Is its IC50 below 8 nM?
Result :: TRUE

Query :: Here's an entry: O=S(=O)(C1CC1)n1cc(-c2nccc(Nc3cc(N[C@H]4CC[C@@H](O)CC4)c(-c4csc(C(F)(F)F)n4)cn3)n2)cn1 . Is its IC50 below 8 nM?
Result :: TRUE

Query :: Here's an entry: Cn1ccc(-c2cnc(Nc3ccnc(-c4cnn(S(=O)(=O)C5CC5)c4)n3)cc2N[C@H]2CC[C@](O)(CO)CC2)n1 . Is its IC50 below 8 nM?
Result :: TRUE

Query :: Here's an entry: O=S(=O)(C1CC1)n1cc(-c2nccc(Nc3cc(OC4CCC(O)CC4)c(-c4ccn(C(F)F)n4)cn3)n2)cn1 (stereo not shown) . Is its IC50 below 8 nM?
Result :: TRUE

Query :: Here's an entry: Cn1nc(-c2cnc(Nc3ccnc(-c4cnn(S(=O)(=O)C5CC5)c4)n3)cc2N[C@H]2CC[C@H](CCO)CC2)cc1C(F)(F)F . Is its IC50 below 8 nM?
Result :: FALSE

Query :: Here's an entry: O=S(=O)(C1CC1)n1cc(-c2nccc(Nc3cc(N[C@H]4CC[C@@H](CN5CCC5)CC4)c(-c4ccn(C(F)F)n4)cn3)n2)cn1 . Is its IC50 below 8 nM?
Result :: TRUE

Query :: Here's an entry: O=S(=O)(C1CC1)n1cc(-c2nccc(Nc3cc(N[C@H]4CC[C@@H](NCCF)CC4)c(-c4csc(N5CCOCC5)n4)cn3)n2)cn1 . Is its IC50 below 8 nM?
Result :: FALSE

Query :: Here's an entry: CN(C)CC1(C)CCC(Nc2cc(Nc3ccnc(-c4cnn(S(=O)(=O)C5CC5)c4)n3)ncc2-c2ccn(CC(F)F)n2)CC1 (stereo not shown) . Is its IC50 below 8 nM?
Result :: FALSE

Query :: Here's an entry: COCCn1cc(-c2nccc(Nc3cc(N[C@H]4CC[C@@](C)(O)CC4)c(-c4ccn(C(F)F)n4)cn3)n2)cn1 . Is its IC50 below 8 nM?
Result :: FALSE
